- Measurement Target: EP2 prostanoid receptor (Homo sapiens, UniProt P43116)
- Construct: host or cells: CHO-K1
- Sequence (P43116 whole entry): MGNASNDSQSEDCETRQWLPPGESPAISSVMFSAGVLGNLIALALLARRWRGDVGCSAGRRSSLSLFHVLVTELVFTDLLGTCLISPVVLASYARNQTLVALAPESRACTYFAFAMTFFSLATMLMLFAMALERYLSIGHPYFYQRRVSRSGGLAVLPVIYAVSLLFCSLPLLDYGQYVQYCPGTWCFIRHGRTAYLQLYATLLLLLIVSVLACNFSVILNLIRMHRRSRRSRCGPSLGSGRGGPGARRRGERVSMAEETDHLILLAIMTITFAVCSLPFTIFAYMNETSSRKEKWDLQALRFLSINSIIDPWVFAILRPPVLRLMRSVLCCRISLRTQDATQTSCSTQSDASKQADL
- Experiment Summary: GloSensor cAMP assay in CHO-K1 cells co-transfected with the EP2 receptor
- Format: cell-based
- Stated Conditions: cAMP response in CHO-K1 cells, 4.5 hr incubation
- Experimental: cAMP is a second messenger involved in signal transduction of G-protein coupled receptors (GPCRs) acting through Gα-s and Gα-i proteins. […] Cell number was determined using a hemacytometer. […] Following incubation, cells were treated and analyzed. […] Cell number was determined using a hemacytometer. […] A first pre-read measurement was taken using a microplate reader (MicroLumat Plus). Plates were incubated for an additional 10 minutes at room temperature, followed by a second pre-read measurement. […]
Measurement Type: EC50 (µM)
Give bare numbers, in µM.

**Query** Fill blank: measured EC50 of the compound CCCCC[C@H](O)CC[C@@H]1[C@H]2Cc3cccc(OCC(=O)O)c3C[C@H]2C[C@H]1O [Treprostinil] is ____.
**Result** 0.2
